system.tested: human ether-à-go-go-related gene (hERG) potassium channel (human, UniProt Q12809)
Sequence (Q12809 whole entry, looked up): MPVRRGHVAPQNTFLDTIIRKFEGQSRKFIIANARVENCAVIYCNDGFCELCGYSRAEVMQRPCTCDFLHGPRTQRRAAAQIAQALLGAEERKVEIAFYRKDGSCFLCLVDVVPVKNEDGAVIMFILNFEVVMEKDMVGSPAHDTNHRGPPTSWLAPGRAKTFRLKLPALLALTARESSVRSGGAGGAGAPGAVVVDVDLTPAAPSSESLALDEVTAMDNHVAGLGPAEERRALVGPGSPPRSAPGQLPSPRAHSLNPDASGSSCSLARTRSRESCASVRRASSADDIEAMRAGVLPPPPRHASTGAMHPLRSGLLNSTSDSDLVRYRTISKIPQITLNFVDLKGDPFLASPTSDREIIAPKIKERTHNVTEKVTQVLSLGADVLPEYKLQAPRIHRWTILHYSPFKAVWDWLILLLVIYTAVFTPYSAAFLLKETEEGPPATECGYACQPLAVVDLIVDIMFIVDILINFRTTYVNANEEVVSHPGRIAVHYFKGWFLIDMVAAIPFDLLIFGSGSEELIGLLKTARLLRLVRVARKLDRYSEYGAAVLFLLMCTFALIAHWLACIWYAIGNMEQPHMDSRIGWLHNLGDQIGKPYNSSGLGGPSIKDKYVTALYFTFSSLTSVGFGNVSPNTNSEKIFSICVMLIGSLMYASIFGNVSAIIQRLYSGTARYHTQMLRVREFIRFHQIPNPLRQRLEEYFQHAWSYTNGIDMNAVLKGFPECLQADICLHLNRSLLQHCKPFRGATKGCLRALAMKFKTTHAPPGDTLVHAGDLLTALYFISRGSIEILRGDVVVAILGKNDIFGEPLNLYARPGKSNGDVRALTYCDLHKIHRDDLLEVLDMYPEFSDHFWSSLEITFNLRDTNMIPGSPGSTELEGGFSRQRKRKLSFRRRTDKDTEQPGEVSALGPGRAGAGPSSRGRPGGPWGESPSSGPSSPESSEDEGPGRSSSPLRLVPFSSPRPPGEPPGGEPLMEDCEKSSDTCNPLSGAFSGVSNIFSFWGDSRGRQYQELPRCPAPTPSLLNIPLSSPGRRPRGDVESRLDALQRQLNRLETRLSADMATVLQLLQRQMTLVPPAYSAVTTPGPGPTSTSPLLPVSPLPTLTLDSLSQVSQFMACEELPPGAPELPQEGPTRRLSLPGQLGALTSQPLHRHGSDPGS
measurement.description: primary screen, population patch clamp on CHO cells stably expressing hERG; higher = less effect of the substance
Out of some 310,000 compounds screened, about 2,200 (0.71%) showed an effect of 50% or more. The effect is printed as a negative number. This excerpt belongs to a sample that is enriched for strong results.
Exercise: for every item that follows, state its recorded hERG current change (%, negative = inhibition) at 1uM.
Give bare numbers, in %.

Fill in hERG current change (%, negative = inhibition) at 1uM for each of the 4 compounds listed.
1. CN(CC#CC(O)(c1ccccc1)c1ccccc1)C(C)(C)C
2. CCOc1ccc2[nH]c(=O)c(CN(CCN3CCOCC3)Cc3nnnn3C(C)(C)CC)cc2c1
3. COc1cccc(-n2c(Cc3cc(=O)[nH]c(=O)[nH]3)nnc2SC(C)C)c1
4. COc1cccc(N2CC(C(=O)OC(C)C(=O)c3ccccc3)CC2=O)c1 (stereo not shown)

Outgoing:
1: -40.8; 2: 12.1; 3: 2.56; 4: 5.64
